# Measured Target: Ubiquitin-activating enzyme e1, putative (Leishmania donovani (strain BPK282A1))
# Sequence (whole entry): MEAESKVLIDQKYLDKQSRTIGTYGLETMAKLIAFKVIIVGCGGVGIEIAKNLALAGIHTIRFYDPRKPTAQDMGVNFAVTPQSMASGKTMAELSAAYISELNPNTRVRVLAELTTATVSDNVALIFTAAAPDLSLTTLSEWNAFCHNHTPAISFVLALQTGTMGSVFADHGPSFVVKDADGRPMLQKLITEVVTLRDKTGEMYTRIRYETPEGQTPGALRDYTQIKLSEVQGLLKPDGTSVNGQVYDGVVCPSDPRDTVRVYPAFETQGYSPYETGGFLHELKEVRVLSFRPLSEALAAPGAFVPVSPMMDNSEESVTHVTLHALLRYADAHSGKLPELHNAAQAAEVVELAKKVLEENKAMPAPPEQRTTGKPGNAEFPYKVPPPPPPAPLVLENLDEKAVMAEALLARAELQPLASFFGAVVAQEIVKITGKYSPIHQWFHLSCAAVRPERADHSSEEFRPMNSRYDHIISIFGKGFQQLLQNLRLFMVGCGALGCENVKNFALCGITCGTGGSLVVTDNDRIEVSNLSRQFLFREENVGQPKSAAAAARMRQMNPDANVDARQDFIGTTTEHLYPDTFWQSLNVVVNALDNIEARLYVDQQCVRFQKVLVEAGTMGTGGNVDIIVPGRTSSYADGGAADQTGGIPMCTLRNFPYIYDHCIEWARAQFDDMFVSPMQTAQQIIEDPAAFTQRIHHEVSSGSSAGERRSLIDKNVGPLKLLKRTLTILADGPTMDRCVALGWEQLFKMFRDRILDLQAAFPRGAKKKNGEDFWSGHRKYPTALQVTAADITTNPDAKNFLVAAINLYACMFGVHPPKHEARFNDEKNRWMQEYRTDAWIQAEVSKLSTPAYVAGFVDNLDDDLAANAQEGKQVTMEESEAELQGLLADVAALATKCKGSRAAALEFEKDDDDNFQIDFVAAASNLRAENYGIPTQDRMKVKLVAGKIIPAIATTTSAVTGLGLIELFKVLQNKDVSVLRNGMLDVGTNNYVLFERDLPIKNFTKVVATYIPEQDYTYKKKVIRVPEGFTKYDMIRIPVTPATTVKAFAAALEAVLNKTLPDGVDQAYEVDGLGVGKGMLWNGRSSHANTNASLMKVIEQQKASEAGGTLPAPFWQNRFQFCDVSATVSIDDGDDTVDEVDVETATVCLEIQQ
# Experiment Description: Leishmania donovani Ubiquitin Activating Enzyme (LdE1)
# Assay type: functional
# Design: scale not given: direction of the effect not stated beside the values
# Settings: 30 µM
Potency and affinity values are given separately.
Measure: Percent Effect (%)

• Cc1ccccc1Oc1ncccc1CNS(C)(=O)=O = 15.6
• CCN1CCC2(CC1)CC(NC(=O)NC)c1cc(C)ccc12 (stereo unspecified) = 13.3
• CS(=O)(=O)NC1CCc2c(ccc(=O)n2CC2CC2)C1 (stereo unspecified) = 10.7
• Cc1nc(CCCNC(=O)C2CC(=O)N(C3CC3)C2)sc1C (stereo unspecified) = 16.4
• c1cnc(-c2nc(CN3CCCC(Cn4cncn4)C3)cs2)nc1 (stereo unspecified) = 8.11
• COc1ccc(OCCCNC(=O)NCc2csc(C)n2)cc1 = 16.2
• CS(=O)(=O)NC[C@]12COC[C@H]1CN(CC1CCCC1)C2 = 5.41
• CC(=O)Nc1cccc(C(=O)Nc2cnc3n2CCCC3)c1 = 4.17
• O=C(CN1CCCC1Cn1cncn1)Nc1cccnc1 (stereo unspecified) = 9.72
• COCCCn1ccnc1-c1cnc(OC)nc1 = 5.41
• Cn1c(Cn2cccn2)nnc1C1CCCN(c2ccncc2)C1 (stereo unspecified) = 2.7
• Cc1cc(C)c(CNC(=O)N2CCCC2c2ccccc2)c(=O)[nH]1 (stereo unspecified) = -77.2
• Cc1cccc(-c2nc(C)nn2CC(=O)N(C)C2CC2)c1 = 15.6
• O=C(CN1CCC(c2cccc(F)c2)C1)NCC(F)(F)F (stereo unspecified) = 18.4
• CC(C)Oc1ncc(C(=O)N2CCC(NC(=O)C3CC3)CC2)cc1Cl = -2.74
• CC(C)NC(=O)N1CCN(S(=O)(=O)C2CC2)CC2(CC(=O)N(C)C2)C1 (stereo unspecified) = 10.4
• CN(CCC(F)(F)F)C(=O)C1CCCN1C(=O)OC(C)(C)C (stereo unspecified) = 2.74
• CSCCC(CO)NC(=O)c1sc(-c2ccccc2Cl)nc1C (stereo unspecified) = 4
• Cn1nccc1-c1ccc2nc(C3CCN(CCO)CC3)nn2c1 = 13.3
• Cc1ccc(=O)n(CC2(O)CCN(Cc3cc(C)c(O)c(C)c3)CC2)n1 = 23
• CCC(O)CNC(=O)c1coc(COc2ccc3sc(C)nc3c2)n1 (stereo unspecified) = -2.74
• Cc1cc(C2CCCN(C(=O)c3cnn(C)c3)C2)ccn1 (stereo unspecified) = 9.46
• O=S(=O)(NCC1(O)CCOc2ccccc21)c1cccs1 (stereo unspecified) = 0
• Cn1nnc2c1CCN(CC1CC1)C2COCc1ccccc1 (stereo unspecified) = 16
• COc1ccc(C(=O)Nc2cnn(CC(=O)NC3CCCC3)c2)c(O)c1 = 13.7
• O=C(c1ncccn1)N1C[C@H]2CCC[C@@]2(COCc2ccncc2)C1 = 23.4
• CCOC(=O)[C@]12CCCN(Cc3ccco3)C[C@H]1CN(CCN(C)C)C2 = 7.79
• CCNC(=O)[C@@H]1C[C@H](NC(=O)c2cncnc2C)CN1CCCSC = 5.48
• O=C(NC[C@]12COC[C@H]1CN(Cc1nccs1)C2)N1CCCC1 = 9.33
• COCC(=O)N1CCC2(CC1)COCCN2CCN(C)C = -5.33
• O=C(Cc1ccc(F)cc1)NCCNCC1CNc2ccnn2C1 (stereo unspecified) = 18.9
• Cc1nc(C)n(CC2CCCN(CCc3ccncc3)C2)n1 (stereo unspecified) = 16.4
• Cc1nc(C)n(CC2CCCN2CC(=O)Nc2cc(C(C)C)no2)n1 (stereo unspecified) = 18.4
• COCCn1ccc(=O)c(OCC(=O)Nc2ccccc2)c1C = 6.67
• CC1CCN(CCNC(=O)C2CCN(S(N)(=O)=O)CC2)CC1 = 9.72
• CC(O)CC(C)(C)CNC(=O)NCc1cccc(-n2cncn2)c1 (stereo unspecified) = -2.7
